# Test system: UACC-257
# Protocol notes: NCI tumour cell line growth inhibition, 48 h
Activity calls are given as the source filed them. No stated cut-off is given here; in the data, active = GI50 up to about 1.1 µM and inactive = higher.
Outcome (select one): 1 = active, -1 = inactive

As a guide, the following entries are already answered.
Molecule	Target under test	Answer label
O=C1NP23(OCCO2)Oc2ccccc2C3(C(F)(F)F)O1 (stereo not drawn)	UACC-257	-1
O=c1oc2c3ccc4ccccc4c3n(CCN3CCCCC3)c2c2ccccc12	UACC-257	-1
CC(=O)OCC1(CNc2nc(N)ncc2C#N)CC(CCc2ccccc2)C1 (stereo not drawn)	UACC-257	-1
COc1cc(CC(C)NC(C)=O)cc(OC)c1 (stereo not drawn)	UACC-257	-1
O=C1NC(=O)C2=C1CCC2O (stereo not drawn)	UACC-257	-1

Qu. So what was the verdict on `NCOC(=O)Cc1ccc(Br)cc1` in this test?
Ans. -1

Qu. So what was the verdict on `Oc1ccc(SCc2cc(O)ccc2O)cc1` in this test?
Ans. -1

Qu. So what was the verdict on CC(C)c1cccc(C(C)C)c1NC(=O)C(=O)C1SC(=S)NC1=O (stereo not drawn) in this test?
Ans. -1

Qu. So what was the verdict on `CCOC(=O)c1nc2cc(N3CCOCC3)c(F)cc2[nH]c1=O` in this test?
Ans. -1

Qu. So what was the verdict on `OC(c1cc(C(O)(C(F)(F)F)C(F)(F)F)ncn1)(C(F)(F)F)C(F)(F)F` in this test?
Ans. -1

Qu. So what was the verdict on COC(=O)C(=O)C(C(=O)C(=O)Nc1ccc(C)c(C)c1)c1nc2ccc([N+](=O)[O-])cc2nc1O (stereo not drawn) in this test?
Ans. -1

Qu. So what was the verdict on CC(C)CCC[C@@H](C)[C@H]1CC[C@H]2[C@@H]3CC=C4CC(OCCCCN(O)CCCSC5OC(CO)C(O)C(O)C5O)CC[C@]4(C)[C@H]3CC[C@]12C (stereo partly drawn) in this test?
Ans. -1

Qu. So what was the verdict on C[NH+]1[C@@H](Cc2ccccc2)C(=O)O[B-]1(F)c1ccccc1 (stereo partly drawn) in this test?
Ans. -1

Qu. So what was the verdict on O=C1/C(=C/c2cccs2)NC(=S)N1CN1CCCC(CO)C1 (stereo not drawn) in this test?
Ans. -1

* * *

Below, each of the compounds is paired with its reported GI50 value.
# Test system: NCI-H226
# Protocol notes: NCI tumour cell line growth inhibition, 48 h
Activity calls are given as the source filed them. Cut-off read from the data, not from the text of the source: active = GI50 up to about 1.1 µM and inactive = higher.

Compound	GI50
CC(C)=CC[S+]([O-])c1ccccc1NC1=CC(=O)CC(C)(C)C1 (stereo not given)	> 100 µM (inactive)
C[NH+]1[C@@H](Cc2ccccc2)C(=O)O[B-]1(F)c1ccccc1 (stereo not given in full)	> 100 µM (inactive)
O=C1/C(=C/c2n[nH]cc2-c2ccc(Cl)cc2)C(=O)N(c2ccccc2)C1c1ccccc1 (stereo not given)	24.2 µM (inactive)
CC(=O)OC(OC(C)=O)c1c2ccccc2cc2ccccc12	17.9 µM (inactive)
O=P1(Cc2ccccc2)N(Cc2ccccc2)[C@@H]2CCCC[C@H]2N1Cc1ccccc1	2.2 µM (inactive)
Nc1nc(N)c2ncn(Cc3ccccc3CO)c2n1	> 100 µM (inactive)

Qu. Need GI50 of COC(=O)NN1C(C)=C(C(=O)OC)C2(C#N)C(C(=O)OC)=C(C)N(NC(=O)OC)C12N (stereo not given) , thanks.
Ans. > 100 µM (inactive)

Qu. Need GI50 of `COP(=O)(Cc1ccccc1)Cc1ccccc1` , thanks.
Ans. > 100 µM (inactive)

Qu. Need GI50 of C=CCCC12CCCC(=O)C1Sc1ccc3ccccc3c12 (stereo not given) , thanks.
Ans. 14.1 µM (inactive)

Qu. Need GI50 of `NCCCN(CCCCN(CCCN)C(=O)OCc1ccccc1)C(=O)OCc1ccccc1` , thanks.
Ans. > 100 µM (inactive)
